Provide the reported IC50 of each item.
Test system: Human gastric cancer cell line MGC803
protocol description: Inhibition of MGC803 tumor cell proliferation (CellTiter luminescent viability)
Assay type: cell-based
settings: Table IA1, IRAK4 inhibitor-based compounds; MGC803, 96 hours; read-out: Inhibitory activity (IC50, nM) on tumor cell proliferation, MGC803

Problem: What value of measured IC50 is listed for O=C1CCN(N2Cc3cc(CN4CCC(n5cc(NC(=O)c6cnn7ccc(N8C[C@H]9C[C@@H]8CO9)nc67)c(C(F)F)n5)CC4)ccc3C2=O)C(=O)N1 ?
Solution: 500 to 1000 nM

Problem: What value of measured IC50 is listed for O=C1CCN(N2Cc3cc(CN4CCC(N5CCN(c6ccc7c(c6)nc(NC(=O)c6cccc(C(F)(F)F)c6)n7[C@H]6CC[C@@H](CO)CC6)CC5)CC4)ccc3C2=O)C(=O)N1 ?
Solution: 500 to 1000 nM

Problem: What value of measured IC50 is listed for CC[C@@H]1[C@H](F)C(=O)N[C@@H]1COc1nccc2cc(C(N)=O)c(OC)cc12 [PF06650833, PF-06650833, reference compound] ?
Solution: 5000 to 10000 nM

Problem: What value of measured IC50 is listed for O=C1CCN(N2Cc3cc(CN4CCC(n5cc(NC(=O)c6coc(-c7ccnc(NCC8CC8)c7)n6)c(C(F)F)n5)CC4)ccc3C2=O)C(=O)N1 ?
Solution: 100 to 300 nM

Problem: What value of measured IC50 is listed for O=C1CCN(N2Cc3cc(CN4CCN(c5ccc6c(c5)nc(NC(=O)c5cccc(C(F)(F)F)c5)n6[C@H]5CC[C@@H](CO)CC5)CC4)ccc3C2=O)C(=O)N1 ?
Solution: 500 to 1000 nM

Each recorded value in this set is attributed to patent US20260364184A1.
